Attribution: paper PMC6817756

Tested on: ME-47
Test: fluorescence polarization
Settings: FP: 10 mM Tris-HCl, 50 mM KCl, 1 mM EDTA, 5 mM MgCl2, 10 mM DTT, 2 nM DNA stock mixed 20 ul + 20 ul protein, 30 min, pH and temperature not stated; pulldown: …
Kindly state Kd for each of the entries shown.
One number for each entry, in nM.

Worked cases, answers included:
CCCCCACCACCTGGTGCCTGA (double strand) [VEGFA-1 E box] = 1080
CCCCCACCACGCGGTGCCTGA (double strand) [VEGFA-2 E box] = 3110

Next up:
Q: Item CCCCCACCACGTGGTGCCTGA (double strand) [E box DNA (FP probe)] : provide Kd
A: 117
